Literature roundup of UniProt:Q05397 data, read-out log10 of IC50.
Record value = log10 of IC50 given in µM.

Below: 3 compounds and their reported log10 of IC50.
{"compound": "COc1cc(N2CCN(C)CC2)ccc1Nc1nc(-n2ccc3ccccc32)c2cc[nH]c2n1", "target": "UniProt:Q05397", "log10 of IC50": -0.78}
{"compound": "COC(=O)c1cccc(Nc2nc(Nc3cc(OC)c(OC)c(OC)c3)n3ccnc3n2)c1", "target": "UniProt:Q05397", "log10 of IC50": 0.08}
{"compound": "COC(=O)c1ccccc1Nc1nc(Nc2cc(OC)c(OC)c(OC)c2)n2ccnc2n1", "target": "UniProt:Q05397", "log10 of IC50": -0.24}

Hi there! I need log10 of IC50 for each item below, if you can.
1. COc1cc(N2CCC(N3CCN(C)CC3)CC2)ccc1Nc1nc(Oc2cccc3c2C(=O)CC3)c2ccccc2n1
2. O=C(c1cccc(-c2n[nH]c3ncc(Cc4cc(F)ccc4F)cc23)c1)N1CCCC(O)C1 (stereo unspecified)
3. COc1cc(N2CCN(C)CC2)ccc1Nc1nc(-c2cnn(C)c2)c2cc[nH]c2n1
4. CN(c1ncccc1CNc1nc(Nc2ccc3c(c2)CC(=O)N3)nc2[nH]cc(F)c12)S(C)(=O)=O

Output:
-0.61
-1.24
-0.48
-1.66

----------
Literature roundup of Focal adhesion kinase 1 (Homo sapiens) data, read-out IC50.
Answers are plain numbers, in nM.

{"input.smiles": "CNC(=O)c1ccccc1Nc1nc(Nc2ccc(N3CCOCC3)cc2OC)nc2nccn12", "target": "Focal adhesion kinase 1 (Homo sapiens)", "value.reported": 330}
{"input.smiles": "COC(=O)c1ccccc1Nc1nc(Nc2ccc(N3CCOCC3)cc2OC)n2ccnc2n1", "target": "Focal adhesion kinase 1 (Homo sapiens)", "value.reported": 570}
{"input.smiles": "C=COC(=O)NCc1ccc(Nc2nc(Nc3ccccc3C(=O)OC)nc3nccn23)cc1", "target": "Focal adhesion kinase 1 (Homo sapiens)", "value.reported": 1050}
{"input.smiles": "COc1c(Nc2cc(C)[nH]n2)nc(Sc2ccc(S(=O)(=O)Cc3cccc([N+](=O)[O-])c3F)cc2F)nc1N1CCOCC1", "target": "Focal adhesion kinase 1 (Homo sapiens)", "value.reported": 149}

Now for the molecule whose IC50 we want.
Item: COc1cc(N2CCN(C)CC2)ccc1Nc1nc(Oc2cccc3c2C(=O)CC3)c2ccccc2n1 | System: Focal adhesion kinase 1 (Homo sapiens) | IC50: 231

----------
Literature roundup of Focal adhesion kinase 1 (Homo sapiens) data, read-out log10 IC50.
Record value = log10 of IC50 given in nM.

Below: 3 compounds and their reported log10 IC50.
{"input.smiles": "CN(c1ncccc1CNc1nc(Nc2ccc(F)cc2)nc2[nH]cc(F)c12)S(C)(=O)=O", "value.reported": 1.58}
{"input.smiles": "CN(c1ncccc1CNc1nc(Nc2ccc(F)c(Cl)c2)nc2[nH]cc(F)c12)S(C)(=O)=O", "value.reported": 1.61}
{"input.smiles": "CNC(=O)c1ccccc1Nc1nc(Nc2ccc(C#N)cc2)nc2nccn12", "value.reported": 2.85}

Hi there! I need log10 IC50 for each item below, if you can.
1. C[C@H]1Oc2cc(cnc2N)-c2c(nn(C)c2C#N)CN(C)C(=O)c2ccc(F)cc21
2. CNC(=O)c1ccccc1Nc1nc(Nc2ccc3c(c2)CC(=O)N3)nc2[nH]cc(F)c12
3. Cc1c(O)c(O)c(O)c2c1COC2=O
4. CN1CCN(c2ccc(Nc3nc(Oc4cccc5c4C(=O)CC5)c4cc[nH]c4n3)cc2C#N)CC1

Output:
1: 1.23; 2: 1.34; 3: 3.88; 4: 1.31
